TGT: KRas Q61H mutant (Homo sapiens, UniProt P01116, Q61H)
ASSAY_INFO: Ras GTP binding domain inhibition assay (labeled-GTP competition, cell-free)
CONDITION_CONTEXT: with SOS
PROPERTY_NAME: IC50

INSERT INTO measurements (compound, tgt, property_name, result) VALUES
  ('CO[C@@H]1CC[C@H](Nc2nc(-c3nccn3C)nc3sc(-c4ccn(C(C)C)n4)c(C)c23)C1', 'KRas Q61H mutant (Homo sapiens, UniProt P01116, Q61H)', 'IC50', '1 to 4.99 µM'),
  ('COCCn1ccnc1-c1nc(N[C@H]2C[C@@H](OC)C2)c2c(-c3ccccc3)c(-c3ccn(C)n3)sc2n1', 'KRas Q61H mutant (Homo sapiens, UniProt P01116, Q61H)', 'IC50', '1 to 4.99 µM'),
  ('CO[C@H]1CC[C@@H](Nc2nc(-c3nccn3C)nc3sc(-c4ccn(C(C)C)n4)c(C)c23)C1', 'KRas Q61H mutant (Homo sapiens, UniProt P01116, Q61H)', 'IC50', '1 to 4.99 µM'),
  ('CO[C@H]1CC[C@@H](Nc2nc(-c3nccn3C)nc3sc(-c4cn(C)cn4)c(-c4ccccc4)c23)C1 (racemic)', 'KRas Q61H mutant (Homo sapiens, UniProt P01116, Q61H)', 'IC50', '5 to 10 µM'),
  ('COCCNC(=O)c1nc(O)c2scc(-c3ccccn3)c2n1', 'KRas Q61H mutant (Homo sapiens, UniProt P01116, Q61H)', 'IC50', '> 10 µM');

Which IC50 value is on record for CO[C@@H]1CC[C@H](Nc2nc(-c3nccn3C)nc3sc(-c4ccn(C(C)C)n4)c(-c4ccccc4)c23)C1 ?
1 to 4.99 µM

Item CO[C@H]1CC[C@@H](Nc2nc(C(=O)NC(C)C)nc3sccc23)C1 (racemic) has what recorded IC50?
> 10 µM
